- measuredOn: Programmed cell death 1 ligand 1 (Homo sapiens, UniProt Q9NZQ7)
- Sequence (Q9NZQ7 whole entry): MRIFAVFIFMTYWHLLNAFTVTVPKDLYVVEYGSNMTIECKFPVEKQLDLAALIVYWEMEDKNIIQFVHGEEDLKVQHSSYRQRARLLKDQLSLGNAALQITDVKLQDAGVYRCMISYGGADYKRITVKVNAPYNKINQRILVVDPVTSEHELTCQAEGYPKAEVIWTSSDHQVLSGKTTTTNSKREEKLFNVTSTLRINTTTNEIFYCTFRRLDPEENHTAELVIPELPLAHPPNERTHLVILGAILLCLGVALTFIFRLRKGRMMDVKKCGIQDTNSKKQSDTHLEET
Listing of recorded IC50 by entry.
parameter: IC50

>>> reportedresult("N#Cc1c(-c2ccc3c(c2)OCCO3)cccc1N1CCC(N[C@H]2C[C@@H](O)C2)CC1")
"< 100 nM"
>>> reportedresult("N#Cc1cncc(COc2cc(O[C@H]3CCc4c(-c5ccccc5)cccc43)c(Cl)cc2CN[C@@H](CO)C(=O)O)c1")
"< 100 nM"
>>> reportedresult("Cc1c(-c2ccccc2)cccc1-c1cn2nc(CNCCO)cnc2n1")
"< 100 nM"
>>> reportedresult("O=C(/C=C/c1ccc(O)c(O)c1)O[C@H]1C[C@@](O)(C(=O)O)C[C@H](O)[C@@H]1O")
"36600 nM"
>>> reportedresult("Cc1c(-c2ccccc2)cccc1-c1nc2c(s1)CNCC2")
"< 100 nM"
>>> reportedresult("Cc1c(-c2ccccc2)cccc1-c1nc2cc(CNCCO)ccc2o1")
"< 100 nM"
